Let's go through some pKi measurements on rat mGluR5 (Rattus norvegicus, UniProt P31424) together.
Sequence (P31424 21-1203): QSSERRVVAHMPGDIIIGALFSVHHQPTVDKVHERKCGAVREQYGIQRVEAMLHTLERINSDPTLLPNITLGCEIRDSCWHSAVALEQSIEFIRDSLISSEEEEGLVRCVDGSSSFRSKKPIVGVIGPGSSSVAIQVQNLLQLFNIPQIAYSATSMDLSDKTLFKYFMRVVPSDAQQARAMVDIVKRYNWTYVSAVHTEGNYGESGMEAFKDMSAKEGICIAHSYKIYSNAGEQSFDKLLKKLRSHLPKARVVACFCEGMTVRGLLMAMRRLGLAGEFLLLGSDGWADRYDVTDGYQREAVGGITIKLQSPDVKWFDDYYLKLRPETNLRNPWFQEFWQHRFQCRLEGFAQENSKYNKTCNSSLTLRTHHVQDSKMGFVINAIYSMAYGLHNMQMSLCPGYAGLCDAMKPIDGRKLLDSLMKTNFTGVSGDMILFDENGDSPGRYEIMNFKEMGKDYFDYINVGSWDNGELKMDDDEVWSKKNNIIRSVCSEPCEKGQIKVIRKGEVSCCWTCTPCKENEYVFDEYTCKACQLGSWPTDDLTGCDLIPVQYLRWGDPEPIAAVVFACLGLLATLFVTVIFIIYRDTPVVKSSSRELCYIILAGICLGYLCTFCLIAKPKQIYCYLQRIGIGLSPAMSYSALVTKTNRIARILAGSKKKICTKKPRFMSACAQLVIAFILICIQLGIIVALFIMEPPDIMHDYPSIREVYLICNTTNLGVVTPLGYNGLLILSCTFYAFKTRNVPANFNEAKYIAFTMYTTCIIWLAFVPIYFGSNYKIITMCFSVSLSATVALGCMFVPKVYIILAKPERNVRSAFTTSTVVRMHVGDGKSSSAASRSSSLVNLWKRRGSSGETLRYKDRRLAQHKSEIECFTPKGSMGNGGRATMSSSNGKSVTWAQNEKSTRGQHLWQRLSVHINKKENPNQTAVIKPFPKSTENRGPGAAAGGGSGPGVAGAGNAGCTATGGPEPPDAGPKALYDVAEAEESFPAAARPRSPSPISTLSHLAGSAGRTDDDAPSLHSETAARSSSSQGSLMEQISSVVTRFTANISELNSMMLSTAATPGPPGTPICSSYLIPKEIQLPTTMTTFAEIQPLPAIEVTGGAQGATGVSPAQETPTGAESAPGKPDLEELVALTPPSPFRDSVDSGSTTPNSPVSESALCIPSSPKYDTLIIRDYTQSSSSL
pKi: −log10 of the molar value.

Before answering, review these 5 worked examples.
N#Cc1cccc(S(=O)(=O)c2cnc3c(F)cccc3c2-c2ccccc2F)c1 [Compound 213]	> 6.70
O=S(=O)(c1ccc(F)cc1)c1cnc2cc(F)ccc2c1-c1ccc(Cl)cc1 [Compound 76]	> 6.70
Cc1ccc(S(=O)(=O)c2cnc3ccc(F)cc3c2-c2cccc(Cl)c2)cc1Cl [Compound 138]	> 6.70
O=S(=O)(c1cc(F)cc(F)c1)c1cnc2cc(F)c(Cl)cc2c1-c1ccc(Cl)cc1 [Compound 198]	< 6.30
COc1ccc(-c2c(S(=O)(=O)c3ccc(F)c(F)c3)cnc3cc(F)ccc23)cc1 [Compound 99]	> 6.70

Give the reported pKi for COc1ccc(-c2c(S(=O)(=O)c3cccc(C#N)c3)cnc3ccc(F)cc23)cc1 [Compound 137] (system: rat mGluR5 (Rattus norvegicus, UniProt P31424)).
> 6.70

For O=S(=O)(c1cc(F)cc(F)c1)c1cnc2ccc(F)cc2c1-c1cccc(Cl)c1 [Compound 64] then?
< 6.30

For N#Cc1cc(S(=O)(=O)c2cnc3cc(F)ccc3c2-c2ccc(F)cc2)ccc1F [Compound 275] then?
> 6.70

----------
Biological target: rat mGluR1 (Rattus norvegicus)
Sequence (P23385 19-1199): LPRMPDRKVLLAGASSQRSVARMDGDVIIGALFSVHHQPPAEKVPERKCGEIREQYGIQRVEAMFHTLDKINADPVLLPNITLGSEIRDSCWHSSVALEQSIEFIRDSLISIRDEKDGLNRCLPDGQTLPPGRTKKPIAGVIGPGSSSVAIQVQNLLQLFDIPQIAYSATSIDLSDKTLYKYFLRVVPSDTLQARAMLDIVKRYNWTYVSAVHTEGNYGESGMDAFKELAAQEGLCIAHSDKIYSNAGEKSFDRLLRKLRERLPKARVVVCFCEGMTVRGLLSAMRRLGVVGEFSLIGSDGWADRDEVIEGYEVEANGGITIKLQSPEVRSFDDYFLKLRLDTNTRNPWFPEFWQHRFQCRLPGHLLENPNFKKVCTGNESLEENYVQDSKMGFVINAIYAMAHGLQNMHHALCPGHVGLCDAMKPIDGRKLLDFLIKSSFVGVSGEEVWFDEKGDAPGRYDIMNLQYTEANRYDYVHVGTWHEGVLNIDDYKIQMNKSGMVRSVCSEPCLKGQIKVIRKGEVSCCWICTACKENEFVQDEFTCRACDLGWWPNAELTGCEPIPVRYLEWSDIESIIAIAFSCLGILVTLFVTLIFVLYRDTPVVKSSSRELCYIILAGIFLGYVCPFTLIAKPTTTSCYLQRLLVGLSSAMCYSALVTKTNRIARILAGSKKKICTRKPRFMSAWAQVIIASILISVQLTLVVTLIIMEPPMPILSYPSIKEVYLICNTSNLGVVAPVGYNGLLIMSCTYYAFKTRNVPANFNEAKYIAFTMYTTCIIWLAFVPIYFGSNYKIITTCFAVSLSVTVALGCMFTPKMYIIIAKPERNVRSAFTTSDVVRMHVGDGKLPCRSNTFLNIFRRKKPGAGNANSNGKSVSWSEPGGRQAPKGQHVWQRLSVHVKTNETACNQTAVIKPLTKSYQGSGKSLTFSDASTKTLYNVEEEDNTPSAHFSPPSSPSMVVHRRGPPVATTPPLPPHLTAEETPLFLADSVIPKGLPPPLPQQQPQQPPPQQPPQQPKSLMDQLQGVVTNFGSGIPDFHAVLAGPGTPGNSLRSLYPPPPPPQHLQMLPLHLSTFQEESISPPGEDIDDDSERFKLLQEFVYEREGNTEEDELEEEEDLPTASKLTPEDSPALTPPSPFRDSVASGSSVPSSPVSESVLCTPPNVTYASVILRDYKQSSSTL
QUANTITY KIND: Ki

Before answering, review these 6 worked examples.
O=S(=O)(c1ccc(F)c(Cl)c1)c1cnc2cc(F)ccc2c1-c1cccc(F)c1	< 0.2 µM
O=S(=O)(c1ccc(F)cc1)c1cnc2ccc(F)cc2c1-c1ccc(F)cc1	> 0.5 µM
O=S(=O)(c1cc(F)cc(F)c1)c1cnc2ccc(F)cc2c1-c1cccc(F)c1	0.2 to 0.5 µM
N#Cc1cccc(S(=O)(=O)c2cnc3cc(C#N)ccc3c2-c2ccc(Cl)cc2)c1	> 0.5 µM
N#Cc1cccc(S(=O)(=O)c2cnc3cc(Cl)ccc3c2-c2ccccc2F)c1	< 0.2 µM
O=S(=O)(c1ccc(Cl)cc1)c1cnc2ccc(F)cc2c1-c1ccc(F)cc1	> 0.5 µM

Quick check: Ki of "O=S(=O)(c1ccc(Cl)cc1)c1cnc2c(Cl)ccc(Cl)c2c1-c1cccc(Cl)c1" ?
> 0.5 µM

For "O=S(=O)(c1ccc(F)cc1)c1cnc2c(F)cccc2c1-c1cccc(Cl)c1" then?
< 0.2 µM

For "Cc1ccc(S(=O)(=O)c2cnc3c(F)cccc3c2-c2ccc(F)cc2)cc1F" then?
> 0.5 µM

For "O=S(=O)(c1ccc(F)cc1)c1cnc2ccc(Cl)cc2c1-c1ccc(Cl)cc1" then?
> 0.5 µM

For "COc1ccc(-c2c(S(=O)(=O)c3ccc(OC)c(Cl)c3)cnc3ccc(F)cc23)cc1" then?
> 0.5 µM

----------
Let's go through some pKi measurements on rat mGluR5 (Rattus norvegicus, UniProt P31424) together.
pKi: −log10 of the molar value.

N#Cc1cccc(S(=O)(=O)c2cnc3c(F)cccc3c2-c2ccc(F)cc2)c1	> 6.70
COc1cccc(-c2c(S(=O)(=O)c3ccc(F)c(F)c3)cnc3ccc(F)cc23)c1	6.30 to 6.70
Cc1ccc(S(=O)(=O)c2cnc3cc(F)ccc3c2-c2cccc(Cl)c2)cc1F	> 6.70

// below: pKi requested for another compound
Quick check: pKi of "O=S(=O)(c1ccc(Cl)cc1)c1cnc2c(Cl)cccc2c1-c1cccc(Cl)c1" ?
6.30 to 6.70
